# TESTED SYSTEM: UniProt:Q96RI1
# Sequence (Q96RI1 whole entry): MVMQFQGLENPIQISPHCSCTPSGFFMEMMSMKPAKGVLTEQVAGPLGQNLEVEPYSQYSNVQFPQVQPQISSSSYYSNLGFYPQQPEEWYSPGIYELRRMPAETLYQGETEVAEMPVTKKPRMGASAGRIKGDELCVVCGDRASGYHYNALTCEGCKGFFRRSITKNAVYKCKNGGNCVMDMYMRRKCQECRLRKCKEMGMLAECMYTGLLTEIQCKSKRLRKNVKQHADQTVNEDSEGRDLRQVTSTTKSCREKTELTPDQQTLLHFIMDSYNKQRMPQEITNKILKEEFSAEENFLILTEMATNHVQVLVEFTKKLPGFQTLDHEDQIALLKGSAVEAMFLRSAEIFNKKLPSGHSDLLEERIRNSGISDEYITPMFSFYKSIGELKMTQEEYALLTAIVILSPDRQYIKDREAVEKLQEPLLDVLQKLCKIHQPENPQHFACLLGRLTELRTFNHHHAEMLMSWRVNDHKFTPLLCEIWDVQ
# PROCEDURE DETAILS: Agonist activity at human FXR expressed in human HeLa cells assessed as receptor activation by BSEP promoter-driven firefly luciferase reporter gene assay
# Format: cell-based
# REPORTED CONDITIONS: read-out: EC50
Here, each record is paired with measured log10 of EC50 data.
QUANTITY: log10 of EC50 (log10 of the value in nM)

STRUCTURE AS SMILES: O=C(O)c1cccc(NC(=O)c2ccccc2NC(=O)c2ccc(Br)cc2)c1
QUANTITY: log10 of EC50
READOUT VALUE: 3.57
--
STRUCTURE AS SMILES: COc1ccc(NC(=O)c2ccccc2NC(=O)c2ccc(C(C)(C)C)cc2)cc1C(=O)O
QUANTITY: log10 of EC50
READOUT VALUE: 1.67
--
STRUCTURE AS SMILES: COc1ccc(C(=O)Nc2cccc(C(=O)O)c2)c(NC(=O)c2ccc(C(C)(C)C)cc2)c1
QUANTITY: log10 of EC50
READOUT VALUE: 0.90
--
STRUCTURE AS SMILES: CC(C)(C)c1ccc(C(=O)Nc2ccccc2C(=O)Nc2cccc(-c3nnn[nH]3)c2)cc1
QUANTITY: log10 of EC50
READOUT VALUE: 3.46
--
STRUCTURE AS SMILES: Cc1c(NC(=O)c2ccccc2NC(=O)c2ccc(C(C)(C)C)cc2)cccc1C(=O)O
QUANTITY: log10 of EC50
READOUT VALUE: 1.62
--
STRUCTURE AS SMILES: CC(C)(C)c1ccc(C(=O)Nc2ccccc2C(=O)Nc2cccc(CCC(=O)O)c2)cc1
QUANTITY: log10 of EC50
READOUT VALUE: 1.81
--
STRUCTURE AS SMILES: Cc1ccc(C(=O)Nc2ccc(C)c(C(=O)O)c2)c(NC(=O)c2ccc(C(C)(C)C)cc2)c1
QUANTITY: log10 of EC50
READOUT VALUE: 1.63
--
STRUCTURE AS SMILES: Cc1ccc(NC(=O)c2ccccc2NC(=O)c2ccc(C(C)(C)C)cc2)cc1C(=O)O
QUANTITY: log10 of EC50
READOUT VALUE: 1.65
--
STRUCTURE AS SMILES: CC(C)(C)c1ccc(C(=O)Nc2cc(Cl)ccc2C(=O)Nc2cccc(C(=O)O)c2)cc1
QUANTITY: log10 of EC50
READOUT VALUE: 1.67
--
STRUCTURE AS SMILES: CC(C)(C)c1ccc(C(=O)Nc2ccccc2C(=O)Nc2ccc(Cl)c(C(=O)O)c2)cc1
QUANTITY: log10 of EC50
READOUT VALUE: 2.45
--
STRUCTURE AS SMILES: CC(=O)c1cccc(NC(=O)c2ccccc2NC(=O)c2ccc(C(C)(C)C)cc2)c1
QUANTITY: log10 of EC50
READOUT VALUE: 2.68
--
STRUCTURE AS SMILES: COc1ccc(NC(=O)c2ccccc2NC(=O)c2ccc(C(C)(C)C)cc2)cc1OC
QUANTITY: log10 of EC50
READOUT VALUE: 1.85
--
STRUCTURE AS SMILES: O=C(O)c1cccc(NC(=O)c2ccccc2NC(=O)c2ccc(C(F)(F)F)cc2)c1
QUANTITY: log10 of EC50
READOUT VALUE: 3.84
--
STRUCTURE AS SMILES: CC(C)(C)c1ccc(C(=O)Nc2ccccc2C(=O)Nc2cccc(C#N)c2)cc1
QUANTITY: log10 of EC50
READOUT VALUE: 2.36
--
STRUCTURE AS SMILES: Cc1ccc(NC(=O)c2ccc(Cl)cc2NC(=O)c2ccc(C(C)(C)C)cc2)cc1C(=O)O
QUANTITY: log10 of EC50
READOUT VALUE: 2.04
--
STRUCTURE AS SMILES: CC(C)(C)c1ccc(C(=O)Nc2ccccc2C(=O)Nc2cccc(C(N)=O)c2)cc1
QUANTITY: log10 of EC50
READOUT VALUE: 1.87
--
STRUCTURE AS SMILES: CC(C)(C)c1ccc(C(=O)Nc2ccccc2C(=O)Nc2cccc(CC(=O)O)c2)cc1
QUANTITY: log10 of EC50
READOUT VALUE: 2.62
--
STRUCTURE AS SMILES: CC(C)(C)c1ccc(C(=O)Nc2ccccc2C(=O)Nc2cccc(C(=O)O)c2)cc1
QUANTITY: log10 of EC50
READOUT VALUE: 2.45
--
STRUCTURE AS SMILES: Cc1ccc(C(=O)Nc2cccc(C(=O)O)c2)c(NC(=O)c2ccc(C(C)(C)C)cc2)c1
QUANTITY: log10 of EC50
READOUT VALUE: 1.79
